Every entry's value here was drawn from patent US10479786B2.

Exercise: for every item that follows, state its recorded inhibition at 0.01 µM.
Target: BMX (Homo sapiens, UniProt P51813)
Construct: purchased Carna Biosciences, Inc
Sequence (P51813 1-675): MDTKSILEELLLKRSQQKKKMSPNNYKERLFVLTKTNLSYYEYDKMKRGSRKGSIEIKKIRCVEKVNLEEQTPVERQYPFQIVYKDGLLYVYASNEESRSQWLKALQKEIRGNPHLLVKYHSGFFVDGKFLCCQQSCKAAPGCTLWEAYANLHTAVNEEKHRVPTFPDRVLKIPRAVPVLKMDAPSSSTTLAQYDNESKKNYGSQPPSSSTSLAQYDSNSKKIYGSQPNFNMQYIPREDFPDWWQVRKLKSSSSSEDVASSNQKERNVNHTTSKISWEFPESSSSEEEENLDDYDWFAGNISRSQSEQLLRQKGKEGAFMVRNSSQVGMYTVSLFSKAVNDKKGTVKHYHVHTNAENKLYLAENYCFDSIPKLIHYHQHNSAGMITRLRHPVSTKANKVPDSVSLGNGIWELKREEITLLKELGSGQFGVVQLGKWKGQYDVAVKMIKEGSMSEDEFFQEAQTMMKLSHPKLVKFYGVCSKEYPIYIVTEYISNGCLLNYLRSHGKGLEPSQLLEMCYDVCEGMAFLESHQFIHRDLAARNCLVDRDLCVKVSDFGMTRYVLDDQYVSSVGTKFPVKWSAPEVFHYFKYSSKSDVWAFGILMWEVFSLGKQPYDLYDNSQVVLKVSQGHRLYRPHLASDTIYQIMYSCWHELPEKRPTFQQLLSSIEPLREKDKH
Experiment: Off-chip Mobility Shift Assay, kinase inhibition
Assay type: biochemical
Details: at 10 nM; recombinant BMX

1. Cc1nc(Nc2ncc(C(=O)Nc3c(C)cccc3Cl)s2)cc(N2CC[C@@H](O)C2)n1 [Compound XI]: > 50%

Report inhibition at 0.01 µM for every entry below.
1. [2H]c1cc(C)c(NC(=O)c2cnc(Nc3cc(N4CC[C@@H](O)C4)nc(C)n3)s2)c(Cl)c1 [Compound V]
2. Cc1nc(Nc2ncc(C(=O)Nc3c(C)cccc3Cl)s2)cc(N2CCCCC2)n1 [Compound VIII]
3. Cc1nc(Nc2ncc(C(=O)Nc3c(C)cccc3Cl)s2)cc(N2CC[C@H](N)C2)n1 [Compound XII]

1: > 50%; 2: > 50%; 3: > 50%

----------
experiment: Metabolic stability in human liver microsomes; assay type: in vitro ADME; details: 1 μM, human liver microsomes 0.5 mg/mL, NADPH and UDPGA, 37° C.
readout kind: In vitro t1/2 (h)
Answers are plain numbers, in h.

# annotated cases, reported In vitro t1/2 shown
1. Cc1nc(Nc2ncc(C(=O)Nc3c(C)cccc3Cl)s2)cc(N2CC[C@@H](O)C2)n1: 0.983
2. Cc1nc(Nc2ncc(C(=O)Nc3c(C)cccc3Cl)s2)cc(N2CC[C@H](O)C2)n1: 1.45
3. [2H]c1cc(C)c(NC(=O)c2cnc(Nc3cc(N4CC[C@H](O)C4)nc(C)n3)s2)c(Cl)c1: 1.47

Here's the next entry for you.
The compound listed as "[2H]c1cc(C)c(NC(=O)c2cnc(Nc3cc(N4CC[C@@H](O)C4)nc(C)n3)s2)c(Cl)c1" shows In vitro t1/2 equal to 1.12

----------
assay: Pharmacokinetics in Sprague-Dawley rats, 2-in-1 dosing; format: in vivo; conditions: rat, intravenous 1 mg/kg, Table 2; co-dosed with compound IV
readout kind: V

Field: example entries. Status: answers known.
1. Cc1nc(Nc2ncc(C(=O)Nc3c(C)cccc3Cl)s2)cc(N2CCN(CCO)CC2)n1 [Dasatinib, reference compound]: 3 ± 0 L/kg
2. [2H]c1cc(C)c(NC(=O)c2cnc(Nc3cc(N4CC[C@H](O)C4)nc(C)n3)s2)c(Cl)c1 [Compound IV]: 1 ± 0 L/kg
3. [2H]c1cc(C)c(NC(=O)c2cnc(Nc3cc(N4CC[C@@H](O)C4)nc(C)n3)s2)c(Cl)c1 [Compound V]: 1 ± 0 L/kg

Below: the item to evaluate.
[2H]c1cc(C)c(NC(=O)c2cnc(Nc3cc(N4CCN(CCO)CC4)nc(C)n3)s2)c(Cl)c1 [Compound III] has a reported V of 3 ± 0 L/kg
